System: SK-MEL-2 melanoma
PROCEDURE SUMMARY: NCI-60 one-dose screen, 48 h
TEST CONTEXT: 10 µM
Procedure: Growth inhibition of the SK-MEL-2 human tumor cell line is measured as a screen for anti-cancer activity. Cells are grown in 96 well plates and exposed to the test compound for 48 hours. Compounds are tested at a single concentration, which is 10^-5 M for most compounds. The reported endpoint is percent growth (GI% or GIPRCNT), where numbers from 0 - 100% represent growth inhibition, and numbers from -100% - 0 represent cell death. For example, a value of 40 represents 60% growth inhibition. […]
The panel holds about 83,000 compounds, 20% with a hit somewhere; the sample as a whole holds those more often. The source made the active and inactive calls. The calls were made as follows: active = growth percent below 10; inactive = the rest.
Outcome codes: yes (1) (active), no (0) (inactive)

{"MOLECULE": "COc1ccc(Nc2ncnc3c2c(SC)nn3-c2ccccc2)cc1", "ASSIGNED LABEL": "no (0)"}
{"MOLECULE": "CN(C)C(=S)N/N=C\\C=N/NC(=S)N(C)C", "ASSIGNED LABEL": "no (0)"}
{"MOLECULE": "Nc1ncn(C2OC(CO)C(O)C2O)c(=O)n1 (stereo not given)", "ASSIGNED LABEL": "yes (1)"}
{"MOLECULE": "Nc1nc(-c2ccccc2Cl)cc(-c2ccc(Cl)cc2Cl)n1", "ASSIGNED LABEL": "no (0)"}
{"MOLECULE": "COc1ccc2c(c1)O/C(=C\\c1ccc([N+](=O)[O-])s1)C2=O", "ASSIGNED LABEL": "no (0)"}
{"MOLECULE": "N=C1c2nc3n(c2C(=O)c2nc4n(c21)CCCC4)CCCC3", "ASSIGNED LABEL": "no (0)"}
{"MOLECULE": "Cc1cc(N(CCCNc2ccnc3cc(Cl)ccc23)Cc2cccs2)nc(Cl)n1", "ASSIGNED LABEL": "no (0)"}
{"MOLECULE": "COc1cc(-c2cc(/C=C/C(=O)c3ccc(Cl)c(Cl)c3)[nH]n2)cc(OC)c1OC", "ASSIGNED LABEL": "no (0)"}
{"MOLECULE": "COc1ccc(/C=C2/CN(C(=O)c3ccc(C)cc3)C/C(=C\\c3ccc(OC)cc3)C2=O)cc1", "ASSIGNED LABEL": "no (0)"}
{"MOLECULE": "ClCCOCCn1cnc2c(Cl)nc(Cl)nc21", "ASSIGNED LABEL": "no (0)"}
{"MOLECULE": "O=S(=O)(Nc1ccccn1)c1ccc(N=Nc2ccc(O)c3ncccc23)cc1", "ASSIGNED LABEL": "yes (1)"}
{"MOLECULE": "Nc1nc(N)c(NC(=O)CNc2ccc(C(=O)O)cc2)c(N)n1", "ASSIGNED LABEL": "no (0)"}
{"MOLECULE": "Nc1ccc2c(c1)Cc1cc(N)c(Br)cc1-2", "ASSIGNED LABEL": "no (0)"}
{"MOLECULE": "O=C(N/N=C\\c1cc(Cl)ccc1[N+](=O)[O-])c1ccco1", "ASSIGNED LABEL": "no (0)"}
{"MOLECULE": "N#Cc1ncc(-c2cc(F)c(F)c(F)c2)c(NC2CCCCCC2)n1", "ASSIGNED LABEL": "no (0)"}
